Measured On: Melanocyte-stimulating hormone receptor (Homo sapiens, UniProt Q01726)
Sequence (Q01726 whole entry, looked up): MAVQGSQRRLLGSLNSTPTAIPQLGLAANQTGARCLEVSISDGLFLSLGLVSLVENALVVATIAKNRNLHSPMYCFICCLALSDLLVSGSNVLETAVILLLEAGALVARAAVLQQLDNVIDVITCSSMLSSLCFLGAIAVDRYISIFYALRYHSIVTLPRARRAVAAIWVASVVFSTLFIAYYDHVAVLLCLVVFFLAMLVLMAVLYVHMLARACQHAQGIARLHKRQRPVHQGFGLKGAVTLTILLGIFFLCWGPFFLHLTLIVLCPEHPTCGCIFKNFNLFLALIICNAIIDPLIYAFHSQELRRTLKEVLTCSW
Method Notes: Agonist activity at human MC1 receptor expressed in CHO cells assessed as cAMP accumulation at 10 uM relative to alpha-MSH
Format: functional, cell-based
Recorded Metric: Activity (%)

// below: answered molecules
q: Would you kindly share the measured Activity for CC[C@@H]1CN(C(=O)N[C@H](Cc2ccc(F)cc2)C(=O)N2CCC(C(=O)NC(C)(C)C)(C3CCCCC3)CC2)C[C@H](CC)N1 ?
a: 24

q: Name the recorded Activity for C[C@@H]1CN(C(=O)N[C@H](Cc2ccc(F)cc2)C(=O)N2CCC(C(=O)NC(C)(C)C)(C3CCCCC3)CC2)C[C@@H](C)N1 .
a: 39

q: Which value of Activity has been reported for C[C@@H]1CN(C(=O)N[C@H](Cc2ccc(F)cc2)C(=O)N2CCC(C(=O)NC(C)(C)C)(C3CCCCC3)CC2)C[C@H](C)N1C in the records?
a: 14

q: Would you kindly share the measured Activity for C[C@@H]1CN(C(=O)N[C@H](Cc2ccc(Cl)cc2)C(=O)N2CCC(C(=O)NC(C)(C)C)(C3CCCCC3)CC2)C[C@H](C)N1 ?
a: 24

q: Need Activity of CC[C@@H]1CN(C(=O)N[C@H](Cc2ccc(F)cc2)C(=O)N2CCC(C(=O)NC(C)(C)C)(C3CCCCC3)CC2)C[C@@H](CC)N1 , thanks.
a: 31

(I) C[C@@H]1CN(C(=O)N[C@H](Cc2ccc(F)cc2)C(=O)N2CCC(C(=O)NC(C)(C)C)(C3CCCCC3)CC2)C[C@H](C)N1
(II) C[C@H]1CN(C(=O)N[C@H](Cc2ccc(F)cc2)C(=O)N2CCC(C(=O)NC(C)(C)C)(C3CCCCC3)CC2)C[C@H](C)N1
q: Pick one, I or II : lowest reported Activity. // return label of chosen record
a: I
(I: 30%, II: 46%)
